# Target Of Assay: T1, CD134 protein (His-tagged, Sino Biological Inc. 10481-H08H) (human, UniProt P43489 29-216)
# T1 construct: bought protein coated on ELISA plates; also called OX40; TNFRSF4; not shown: His tag
# T1 sequence (looked up): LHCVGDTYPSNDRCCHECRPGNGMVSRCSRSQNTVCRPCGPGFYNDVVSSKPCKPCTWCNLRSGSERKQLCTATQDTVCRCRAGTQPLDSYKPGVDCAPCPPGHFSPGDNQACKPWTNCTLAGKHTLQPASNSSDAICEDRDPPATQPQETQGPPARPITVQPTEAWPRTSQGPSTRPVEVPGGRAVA
# Experimental Details: ELISA, coated His-tagged CD134; also: test concentration or dose not given here
Listing of entries alongside the reported ELISA [abs. corr.].
Assay Endpoint: ELISA [abs. corr.] (abs. corr.)

[
  {
    "Binder": "P018.S.11.A.E05 (antibody, V domains shown, V regions on human Ig constant parts; also called AB134_36) VH: QSLEESGGRLVTPGTPLTLNCTASGFSLSAYWMGWVRQAPGKGLEWIGIIYATGSTYYTTWAKGRFTISRTSTTVDLKMTSPTTEDTATYFCGRGDGYESLNLWGPGTLVTVSS VL: AQVLTQTPSSVSAAVGGTVTINCQSSQSVYSNNLLSWYQQKPGQPPKRLIYGASTLDSGVSSRFKGSGSGTQFTLTISGMQSDDAATYYCLGYYSGGIYVFGGGTEVVVK",
    "Unit Spec": "abs. corr.",
    "Obs Value": 1.66
  },
  {
    "Binder": "P018.S.05.A.F05 (as anti-CD134 antibody) (antibody, V domains shown, V regions on human Ig constant parts; also called AB134_16) VH: QSVEESGGRLVTPGTPLTLTCTVSGFSLSNYYMTWVRQAPGKGLEYIGIIGSGVSTYYANWAKGRFTISKASSTTVDLKMTSPTTEDTATYFCARDMYVGNWGDWGLWGQGTLVTVSS VL: AYDMTQTPASVEVAVGGTVTIKCQASQSISNNLNWYQQKPGQPPKLLIYSVSTLASGVPSRFKGSGSGTDYTLTISGVESVDAATYYCQQDYRIGDLDSAFGGGTEVVVK",
    "Unit Spec": "abs. corr.",
    "Obs Value": 2.41
  },
  {
    "Binder": "P018.S.12.A.D06 (antibody, V domains shown, V regions on human Ig constant parts; also called AB134_71) VH: QSVEESGGRLVTPGTPLTLTCTVSGFSLSSYDMSWVRQAPGKGLEWIGIIYVSGTTDYASWAKGRFTISKTSTTVDLKMTSLTTEDTATYFCARDIYVDEIGCFDLWGQGTLVTVSS VL: DILMTQTPASVEVAVGGTVTIKCQASQNIRTYLAWYQQKPGQPPKLLIYRASTLESGVPSRFKGSGSGIEFSLTISDLESADAATYYCQNYDGGSSTGFGGGTEVVVK",
    "Unit Spec": "abs. corr.",
    "Obs Value": 0.865
  }
]
